Documented pIC50 across a set of compounds
Target: functional uptake of norepinephrine (NE) (Rattus norvegicus)
Construct: synaptosomes prepared from rat whole brain, hypothalamus, or corpora striata, respectively; from tissue; host or cells: rat hypothalamus synaptosomes
Assay: Inhibition of functional uptake of norepinephrine (NE) into synaptosomes from rat hypothalamus
Format: biochemical
When answering, recall that pIC50 equals minus log10 of the concentration in mol/L, and write that number alone.

>>> measurement("CN[C@@H](CC(C)(C)O)C1(c2ccc(Cl)cc2)CCC1 [2-(S)-OH-DMS]")
6.51

Switching to the query record.
Ask: I am curious: what pIC50 value has been reported for CN[C@H](CC(C)(C)O)C1(c2ccc(Cl)cc2)CCC1 [2-(R)-OH-DMS] ?
Reply: 7.64

###

Target: functional uptake of norepinephrine (NE) (Rattus norvegicus, UniProt Q63380)
Construct: synaptosomes prepared from rat whole brain, hypothalamus, or corpora striata, respectively; from tissue; host or cells: rat hypothalamus synaptosomes
Sequence (Q63380 1-617): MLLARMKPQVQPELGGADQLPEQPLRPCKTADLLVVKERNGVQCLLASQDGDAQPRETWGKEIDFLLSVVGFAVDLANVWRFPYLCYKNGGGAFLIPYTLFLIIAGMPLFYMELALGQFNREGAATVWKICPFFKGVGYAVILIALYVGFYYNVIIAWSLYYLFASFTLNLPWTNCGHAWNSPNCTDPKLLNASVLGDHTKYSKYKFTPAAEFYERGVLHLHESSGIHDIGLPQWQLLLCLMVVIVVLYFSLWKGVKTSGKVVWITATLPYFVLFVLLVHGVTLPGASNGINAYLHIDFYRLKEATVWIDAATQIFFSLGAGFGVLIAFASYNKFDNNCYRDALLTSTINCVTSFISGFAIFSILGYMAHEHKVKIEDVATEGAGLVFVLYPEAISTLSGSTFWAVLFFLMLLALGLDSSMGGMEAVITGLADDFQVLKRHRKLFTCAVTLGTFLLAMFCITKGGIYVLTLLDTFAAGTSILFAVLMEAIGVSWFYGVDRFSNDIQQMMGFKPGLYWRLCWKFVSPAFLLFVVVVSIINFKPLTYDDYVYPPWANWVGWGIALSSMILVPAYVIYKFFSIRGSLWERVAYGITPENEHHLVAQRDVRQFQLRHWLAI
Test: Inhibition of functional uptake of norepinephrine (NE) into synaptosomes from rat hypothalamus
Type: biochemical
Conditions: synaptosomes from rat hypothalamus; read-out: IC50, NE functional uptake
Documented IC50 across a set of compounds
Response body: numeric value in nM, unit text excluded.

>>> measurement("CC(C)(O)C[C@H](N)C1(c2ccc(Cl)cc2)CCC1 [2-(S)-OH-DDMS]")
71

Ask: I am curious: what IC50 value has been reported for CC(C)(O)C[C@@H](N)C1(c2ccc(Cl)cc2)CCC1 [2-(R)-OH-DDMS] ?
Reply: 6.2

The reported numbers originate from patent US20030087963A1.
